test-conditions: in propylene glycol, 308.2 K
measured-metric: solubility (mole fraction)

So what's the measured solubility (mole fraction) for this one? CCN(CC)CCNC(=O)c1c(C)[nH]c(/C=C2\C(=O)Nc3ccc(F)cc32)c1C.O=C(O)C[C@H](O)C(=O)O
0.00303

----------
test-conditions: in water, 313.2 K
measured-metric: solubility (mole fraction)
Give the figure by itself; no unit, no explanation.

So what's the measured solubility (mole fraction) for this one? CCN(CC)CCNC(=O)c1c(C)[nH]c(/C=C2\C(=O)Nc3ccc(F)cc32)c1C.O=C(O)C[C@H](O)C(=O)O
8.46e-06

----------
test-conditions: in isopropanol, 308.2 K
measured-metric: solubility (mole fraction)

So what's the measured solubility (mole fraction) for this one? CCN(CC)CCNC(=O)c1c(C)[nH]c(/C=C2\C(=O)Nc3ccc(F)cc32)c1C.O=C(O)C[C@H](O)C(=O)O
0.00996

----------
test-conditions: in water, 303.2 K
measured-metric: solubility (mole fraction)
Give the figure by itself; no unit, no explanation.

So what's the measured solubility (mole fraction) for this one? CCN(CC)CCNC(=O)c1c(C)[nH]c(/C=C2\C(=O)Nc3ccc(F)cc32)c1C.O=C(O)C[C@H](O)C(=O)O
4.74e-06

----------
test-conditions: in propylene glycol, 313.2 K
measured-metric: solubility (mole fraction)
Give the figure by itself; no unit, no explanation.

So what's the measured solubility (mole fraction) for this one? CCN(CC)CCNC(=O)c1c(C)[nH]c(/C=C2\C(=O)Nc3ccc(F)cc32)c1C.O=C(O)C[C@H](O)C(=O)O
0.00385

----------
test-conditions: in isopropanol, 303.2 K
measured-metric: solubility (mole fraction)
Give the figure by itself; no unit, no explanation.

So what's the measured solubility (mole fraction) for this one? CCN(CC)CCNC(=O)c1c(C)[nH]c(/C=C2\C(=O)Nc3ccc(F)cc32)c1C.O=C(O)C[C@H](O)C(=O)O
0.0076

----------
test-conditions: in water, 308.2 K
measured-metric: solubility (mole fraction)
Give the figure by itself; no unit, no explanation.

So what's the measured solubility (mole fraction) for this one? CCN(CC)CCNC(=O)c1c(C)[nH]c(/C=C2\C(=O)Nc3ccc(F)cc32)c1C.O=C(O)C[C@H](O)C(=O)O
6.09e-06

----------
test-conditions: in transcutol, 308.2 K
measured-metric: solubility (mole fraction)
Give the figure by itself; no unit, no explanation.

So what's the measured solubility (mole fraction) for this one? CCN(CC)CCNC(=O)c1c(C)[nH]c(/C=C2\C(=O)Nc3ccc(F)cc32)c1C.O=C(O)C[C@H](O)C(=O)O
0.0136

----------
test-conditions: in PEG-400, 298.2 K
measured-metric: solubility (mole fraction)
Give the figure by itself; no unit, no explanation.

So what's the measured solubility (mole fraction) for this one? CCN(CC)CCNC(=O)c1c(C)[nH]c(/C=C2\C(=O)Nc3ccc(F)cc32)c1C.O=C(O)C[C@H](O)C(=O)O
0.00634

----------
test-conditions: in ethanol, 318.2 K
measured-metric: solubility (mole fraction)
Give the figure by itself; no unit, no explanation.

So what's the measured solubility (mole fraction) for this one? CCN(CC)CCNC(=O)c1c(C)[nH]c(/C=C2\C(=O)Nc3ccc(F)cc32)c1C.O=C(O)C[C@H](O)C(=O)O
0.00516

Attribution: BigSolDB 2.1
